From: the supplement of paper PMC10981050

test system: K562; experiment: cell viability relative to vehicle control; higher = less cytotoxic; conditions: 10 µM; SRSF2 genotype: SRSF2 wt/wt;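 note: after 48 h exposure read by CellTiter-Glo luminescence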
Counter-ions that a name gives are not always drawn.
cell viability listing for selected compounds.
Be sure to follow the number with its unit.

Example compounds with recorded cell viability:
compound	target_system	cell viability
CN1CCC(=C2c3ccccc3CCc3sccc32)CC1 [Pizotifen malate]	K562	95.2%
CN(C)CCNC(=O)c1cccn2c(=O)c3cc4ccccc4cc3nc12	K562	30.8%
O=C(Nc1cccc(Cl)c1)c1ccccn1	K562	97%

Ask: Given `c1cc(-c2cnn3cc(-c4ccc(OCCN5CCCCC5)cc4)cnc23)ccn1` , state its recorded cell viability.
Reply: 64.1%

Ask: Entry `O=C(NS(=O)(=O)c1ccc(Br)s1)c1ccc(Cl)cc1Cl` : reported cell viability = ?
Reply: 103%

Ask: I am curious: what cell viability value has been reported for `CCCCOc1nc(N)c2c(n1)N(Cc1cccc(CN3CCCC3)c1)CC(=O)N2` ?
Reply: 90%

Ask: Find the recorded cell viability belonging to Clc1ccc(CSC(Cn2ccnc2)c2ccc(Cl)cc2Cl)cc1 (centres undefined) [Sulconazole Nitrate] and report it.
Reply: 62.7%

Ask: Reported cell viability for `COc1cc(N2CCC(N3CCN(C)CC3)CC2)ccc1Nc1ncc(Cl)c(Nc2ccccc2S(=O)(=O)C(C)C)n1` : what is it?
Reply: 72.5%

Ask: What value of cell viability has been recorded for this entry: CO[C@H]1/C=C\C=C(/C)C(=O)NC2=CC(=O)C(NCCN(C)C)=C(C[C@@H](C)C[C@H](OC)[C@H](O)[C@@H](C)/C=C(\C)[C@@H]1OC(N)=O)C2=O [17-DMAG HCl (Alvespimycin)]
Reply: 24%

Ask: Look up cell viability for this compound: `Clc1cccc(CN=C2Nc3ccccc3NC23CCNCC3)c1`
Reply: 70%

Ask: Could you tell me which cell viability is on file for O=C1OC(C(O)CO)C([O-])=C1O.[Na+] (centres undefined) [Sodium erythorbate] ?
Reply: 114%
